- Tested Target: T1, Human Ang-2FD-hFc (human)
- T1 construct: Order of the pieces follows the name (Ang-2FD, then hFc); also called Dimeric Human Ang-2FD; human Ang-2FD protein conjugated to human IgG
- Experiment Summary: ELISA, 16.67 nM antibody + 2 nM human Ang-2FD-hFc, on coated hTie-2-mFc (competitor)
Assay Readout: Percent Blocking of Ang-2FD Binding to Tie-2 (%)
Supply the numeric figure in %, leaving out any unit text.

Worked set:
>  <Binder>
H1H724N (antibody, V domains shown) VH: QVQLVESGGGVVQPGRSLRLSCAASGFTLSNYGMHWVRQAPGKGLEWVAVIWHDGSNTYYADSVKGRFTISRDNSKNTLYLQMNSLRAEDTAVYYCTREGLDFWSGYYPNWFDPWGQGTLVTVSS VL: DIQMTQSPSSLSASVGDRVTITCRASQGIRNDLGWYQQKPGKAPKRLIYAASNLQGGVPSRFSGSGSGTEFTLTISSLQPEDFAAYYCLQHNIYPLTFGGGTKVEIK

>  <Unit Text>
%

>  <Reported Result>
96.6

$$$$
>  <Binder>
H1H704P (antibody, V domains shown, Fully human antibody, human IgG1) VH: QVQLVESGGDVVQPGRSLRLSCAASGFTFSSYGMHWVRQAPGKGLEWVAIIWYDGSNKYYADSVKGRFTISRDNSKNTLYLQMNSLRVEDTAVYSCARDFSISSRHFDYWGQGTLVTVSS VL: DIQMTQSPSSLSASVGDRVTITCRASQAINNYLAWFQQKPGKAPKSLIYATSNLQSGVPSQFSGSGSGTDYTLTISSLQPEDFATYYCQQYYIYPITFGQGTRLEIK

>  <Unit Text>
%

>  <Reported Result>
97

$$$$

// sample H1H691P (antibody, V domains shown, Fully human antibody, human IgG1) VH: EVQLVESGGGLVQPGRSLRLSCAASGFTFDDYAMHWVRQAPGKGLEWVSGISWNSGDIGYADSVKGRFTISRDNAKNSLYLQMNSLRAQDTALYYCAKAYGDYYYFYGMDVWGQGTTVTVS VL: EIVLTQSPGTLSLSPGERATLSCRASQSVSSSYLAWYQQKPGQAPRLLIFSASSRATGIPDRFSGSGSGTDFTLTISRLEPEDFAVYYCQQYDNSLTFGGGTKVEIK , its Percent Blocking of Ang-2FD Binding to Tie-2 was 97.4

// sample H1H744N (antibody, V domains shown) VH: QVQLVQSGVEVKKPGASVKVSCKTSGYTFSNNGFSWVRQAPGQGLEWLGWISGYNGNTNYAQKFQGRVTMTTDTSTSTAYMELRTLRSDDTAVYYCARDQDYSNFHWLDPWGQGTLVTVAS VL: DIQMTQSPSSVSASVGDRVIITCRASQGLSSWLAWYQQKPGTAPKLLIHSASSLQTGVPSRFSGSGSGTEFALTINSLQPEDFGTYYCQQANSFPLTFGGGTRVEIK , its Percent Blocking of Ang-2FD Binding to Tie-2 was 97.9

// sample H1H690P (antibody, V domains shown, Fully human antibody, human IgG1) VH: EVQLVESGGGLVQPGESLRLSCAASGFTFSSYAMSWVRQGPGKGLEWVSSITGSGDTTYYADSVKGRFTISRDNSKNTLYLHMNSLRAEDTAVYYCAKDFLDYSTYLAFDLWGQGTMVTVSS VL: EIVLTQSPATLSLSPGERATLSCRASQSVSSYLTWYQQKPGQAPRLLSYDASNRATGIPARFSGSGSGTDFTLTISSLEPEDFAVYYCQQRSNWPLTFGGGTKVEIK , its Percent Blocking of Ang-2FD Binding to Tie-2 was 97.2
